system: A375-NRAS^Q61K cells; assay: CTGlo Cell Viability Assay, A375-NRAS^Q61K (A375.11) cells, 96 hours; type: cell-based, human; details: Homo sapiens, 96 h, A375.11 (A375-NRAS^Q61K) cells
molecules and their reported GI50
attributeMeasured: GI50

# molecule, measured
data = [
    ("CCN(C)S(=O)(=O)Nc1ccc(F)c(Oc2ccc3ncn(C4CC5(CCN(C6CC7(C6)CN(c6cc8c(cc6F)c(N6CCC(=O)NC6=O)nn8C)C7)C5)C4)c(=O)c3c2)c1C#N (single isomer, unassigned) [Compound 301]", "< 1 µM"),
    ("CCN(C)S(=O)(=O)Nc1ccc(F)c(Oc2ccc3ncn(C4CC5(CCN(C6CC7(CCN(c8cc9c(cc8F)c(N8CCC(=O)NC8=O)nn9C)CC7)C6)CC5)C4)c(=O)c3c2)c1C#N (stereo not drawn) [Compound 198]", "1 to 10 µM"),
    ("CCN(C)S(=O)(=O)Nc1ccc(F)c(Oc2ccc3ncn(C4CC5(CCN(C6CC7(CCN(c8cc9c(cc8F)c(N8CCC(=O)NC8=O)nn9C)CC7)C6)C5)C4)c(=O)c3c2)c1C#N (stereo not drawn) [Compound 266]", "> 10 µM"),
    ("CCN(C)S(=O)(=O)Nc1ccc(F)c(Oc2ccc3ncn(C4CC5(CC(N6CC[C@H](c7cc8c(cc7F)c(N7CCC(=O)NC7=O)nn8C)C(F)(F)C6)C5)C4)c(=O)c3c2)c1C#N (stereo partly drawn) [Compound 217]", "1 to 10 µM"),
    ("Cn1nc(N2CCC(=O)NC2=O)c2cc(F)c(N3CC4(CC(N5CCC6(CC5)CC(n5cnc7ccc(Oc8c(F)ccc(NS(=O)(=O)N9C[C@H]%10C[C@H]%10C9)c8C#N)cc7c5=O)C6)C4)C3)cc21 (stereo partly drawn) [Compound 277]", "< 1 µM"),
    ("CCN(C)S(=O)(=O)Nc1ccc(F)c(Oc2ccc3ncn(C4CC5(CCN(CC6CCN(c7cc8c(cc7F)c(N7CCC(=O)NC7=O)nn8C)CC6)CC5)C4)c(=O)c3c2)c1C#N [Compound 255]", "> 10 µM"),
    ("CCN(C)S(=O)(=O)Nc1ccc(F)c(Oc2ccc3ncc(C4CC5(CCN(C6CCC(c7cc8c(cc7F)c(N7CCC(=O)NC7=O)nn8C)CC6)CC5)C4)nc3c2)c1C#N (single isomer, unassigned) [Compound 180]", "< 1 µM"),
    ("CCN(C)S(=O)(=O)Nc1ccc(F)c(Oc2ccc3ncc(OC4CCN(C5CCC(c6cc7c(cc6F)c(N6CCC(=O)NC6=O)nn7C)CC5)CC4)nc3c2)c1C#N (single isomer, unassigned) [Compound 124]", "> 10 µM"),
    ("CCN(C)S(=O)(=O)Nc1ccc(F)c(Oc2ccc3ncn(C4CC5(C4)CN(C4CC6(CCN(c7cc8c(cc7F)c(N7CCC(=O)NC7=O)nn8C)CC6)C4)C5)c(=O)c3c2)c1C#N (stereo not drawn) [Compound 314]", "< 1 µM"),
    ("CN(CCO)S(=O)(=O)Nc1ccc(F)c(Oc2ccc3ncn([C@H]4COC5(CCN(C6CCC(c7ccc(NC8CCC(=O)NC8=O)cc7F)CC6)CC5)C4)c(=O)c3c2)c1C#N (single isomer, unassigned) [Compound 76]", "< 1 µM"),
    ("CN(CCO)S(=O)(=O)Nc1ccc(F)c(Oc2ccc3ncn(C4CC5(CCN(C6CCC(c7cc8c(cc7F)c(N7CCC(=O)NC7=O)nn8C)CC6)CC5)C4)c(=O)c3c2)c1C#N (single isomer, unassigned) [Compound 81]", "1 to 10 µM"),
    ("CCN(C)S(=O)(=O)Nc1ccc(F)c(Oc2ccc3ncn([C@@H]4COC5(CCN(C6CCC(c7cc8c(cc7F)c(N7CCC(=O)NC7=O)nn8C)CC6)CC5)C4)c(=O)c3c2F)c1C#N (single isomer, unassigned) [Compound 46]", "< 1 µM"),
    ("Cn1nc(N2CCC(=O)NC2=O)c2cc(F)c(N3CC4(CC(N5CCC6(CC5)CC(c5cnc7ccc(Oc8c(F)ccc(NS(=O)(=O)C9CCCC9)c8C#N)cc7n5)C6)C4)C3)cc21 [Compound 283]", "< 1 µM"),
    ("CCN(C)S(=O)(=O)Nc1ccc(F)c(Oc2ccc3ncn([C@H]4COC5(CCC(N6CCC(c7ccc(NC8CCC(=O)NC8=O)cc7F)C(F)(F)C6)CC5)C4)c(=O)c3c2)c1C#N (single isomer, unassigned) [Compound 190]", "1 to 10 µM"),
    ("CO[C@H]1CCN(S(=O)(=O)Nc2ccc(F)c(Oc3ccc4ncn([C@H]5COC6(CCN(C7CCC(c8cc9c(cc8F)c(N8CCC(=O)NC8=O)nn9C)CC7)CC6)C5)c(=O)c4c3)c2C#N)C1 (single isomer, unassigned) [Compound 115]", "< 1 µM"),
    ("Cn1nc(N2CCC(=O)NC2=O)c2cc(F)c(N3CC4(CC(N5CCC6(CC5)C[C@@H](n5cnc7ccc(Oc8c(F)ccc(NS(=O)(=O)N9CCOCC9)c8C#N)cc7c5=O)CO6)C4)C3)cc21 [Compound 242]", "> 10 µM"),
    ("CO[C@H]1CCN(S(=O)(=O)Nc2ccc(F)c(Oc3ccc4ncn([C@H]5COC6(CCN(C7CC8(C7)CN(c7cc9c(cc7F)c(N7CCC(=O)NC7=O)nn9C)C8)CC6)C5)c(=O)c4c3)c2C#N)C1 [Compound 157]", "< 1 µM"),
    ("CCN(C)S(=O)(=O)Nc1ccc(F)c(Oc2ccc3ncn([C@H]4COC5(C4)CN(C4CC6(C4)CN(c4cc7c(cc4F)c(N4CCC(=O)NC4=O)nn7C)C6)C5)c(=O)c3c2)c1C#N [Compound 310]", "1 to 10 µM"),
]

----------
Experiment: Example 6 pharmacokinetics assay for PKPD study (plasma, tumor, liver)
Assay type: in vivo, BALB/c nude mice
Settings: mouse, plasma, po; 100 mg/kg, single dose; 6 h; read-out: Concentration in Plasma (mean ± SEM)
Method: For the pharmacokinetic/pharmacodynamic (PKPD) study, compounds were tested in the A375 human melanoma xenografts. Known BRAF inhibitors encorafenib, and dabrafenib were used as positive controls. Encorafenib, dabrafenib, Compound 83, Compound 93, Compound 70, and Compound 54 were administered to BALB/c nude mice bearing A375 tumors on PG-D1 and dosed orally (PO) once. Encorafenib was dosed at 35 mg/kg. Dabrafenib was dosed at 100 mg/kg. […]

# compound, concentration at 6 h, ng/mL
records = [
    ("CC(C)(C)c1nc(-c2cccc(NS(=O)(=O)c3c(F)cccc3F)c2F)c(-c2ccnc(N)n2)s1 [Dabrafenib, dabrafenib, reference compound]", 46.2),
]

----------
biological target: BRAF V600E (Homo sapiens, UniProt P15056+Q96SW2, V600E); construct: knock-in of the HiBiT tag to the endogenous BRAF V600E locus; host or cells: A375.10 (A375 clonal line, CRISPR HiBiT knock-in at the endogenous BRAF V600E locus); assay: BRAF V600E HiBiT Degradation Assay; format: cell-based; settings: A375.10 cells, BRAF V600E, 2 hours; residual protein remaining
Sequence (P15056 whole entry V600E): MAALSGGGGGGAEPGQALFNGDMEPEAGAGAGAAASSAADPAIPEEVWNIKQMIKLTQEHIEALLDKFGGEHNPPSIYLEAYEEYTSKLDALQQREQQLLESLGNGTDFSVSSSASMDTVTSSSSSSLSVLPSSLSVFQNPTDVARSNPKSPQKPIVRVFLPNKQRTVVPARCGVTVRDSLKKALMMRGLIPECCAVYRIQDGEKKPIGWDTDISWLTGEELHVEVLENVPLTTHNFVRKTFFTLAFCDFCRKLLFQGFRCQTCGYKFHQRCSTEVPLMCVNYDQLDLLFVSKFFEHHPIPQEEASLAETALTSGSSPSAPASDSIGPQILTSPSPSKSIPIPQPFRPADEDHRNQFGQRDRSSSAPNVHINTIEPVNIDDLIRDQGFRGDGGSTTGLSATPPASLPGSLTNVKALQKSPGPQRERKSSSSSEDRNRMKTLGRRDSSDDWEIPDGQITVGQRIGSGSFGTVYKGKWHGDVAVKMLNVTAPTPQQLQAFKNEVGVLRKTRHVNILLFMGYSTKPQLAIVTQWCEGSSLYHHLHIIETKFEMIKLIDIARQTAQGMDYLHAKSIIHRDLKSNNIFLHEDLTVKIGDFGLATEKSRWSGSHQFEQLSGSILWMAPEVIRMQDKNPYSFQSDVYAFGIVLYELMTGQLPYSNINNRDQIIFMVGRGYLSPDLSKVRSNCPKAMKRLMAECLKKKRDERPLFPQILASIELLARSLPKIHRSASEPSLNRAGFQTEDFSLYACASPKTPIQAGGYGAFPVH
Sequence (Q96SW2 whole entry): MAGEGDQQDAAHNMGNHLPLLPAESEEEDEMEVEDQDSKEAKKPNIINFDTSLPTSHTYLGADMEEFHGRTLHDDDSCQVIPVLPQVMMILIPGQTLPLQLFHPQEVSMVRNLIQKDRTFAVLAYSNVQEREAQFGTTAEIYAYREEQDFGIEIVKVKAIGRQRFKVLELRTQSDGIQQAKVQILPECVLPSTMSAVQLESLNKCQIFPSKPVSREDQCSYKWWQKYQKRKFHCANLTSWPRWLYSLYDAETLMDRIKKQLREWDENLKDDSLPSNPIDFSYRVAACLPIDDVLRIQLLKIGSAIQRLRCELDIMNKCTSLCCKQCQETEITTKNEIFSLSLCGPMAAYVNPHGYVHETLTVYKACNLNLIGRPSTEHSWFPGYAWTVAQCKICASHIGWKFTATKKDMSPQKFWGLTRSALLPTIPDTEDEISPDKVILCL
Sequence (Q16531 whole entry partner): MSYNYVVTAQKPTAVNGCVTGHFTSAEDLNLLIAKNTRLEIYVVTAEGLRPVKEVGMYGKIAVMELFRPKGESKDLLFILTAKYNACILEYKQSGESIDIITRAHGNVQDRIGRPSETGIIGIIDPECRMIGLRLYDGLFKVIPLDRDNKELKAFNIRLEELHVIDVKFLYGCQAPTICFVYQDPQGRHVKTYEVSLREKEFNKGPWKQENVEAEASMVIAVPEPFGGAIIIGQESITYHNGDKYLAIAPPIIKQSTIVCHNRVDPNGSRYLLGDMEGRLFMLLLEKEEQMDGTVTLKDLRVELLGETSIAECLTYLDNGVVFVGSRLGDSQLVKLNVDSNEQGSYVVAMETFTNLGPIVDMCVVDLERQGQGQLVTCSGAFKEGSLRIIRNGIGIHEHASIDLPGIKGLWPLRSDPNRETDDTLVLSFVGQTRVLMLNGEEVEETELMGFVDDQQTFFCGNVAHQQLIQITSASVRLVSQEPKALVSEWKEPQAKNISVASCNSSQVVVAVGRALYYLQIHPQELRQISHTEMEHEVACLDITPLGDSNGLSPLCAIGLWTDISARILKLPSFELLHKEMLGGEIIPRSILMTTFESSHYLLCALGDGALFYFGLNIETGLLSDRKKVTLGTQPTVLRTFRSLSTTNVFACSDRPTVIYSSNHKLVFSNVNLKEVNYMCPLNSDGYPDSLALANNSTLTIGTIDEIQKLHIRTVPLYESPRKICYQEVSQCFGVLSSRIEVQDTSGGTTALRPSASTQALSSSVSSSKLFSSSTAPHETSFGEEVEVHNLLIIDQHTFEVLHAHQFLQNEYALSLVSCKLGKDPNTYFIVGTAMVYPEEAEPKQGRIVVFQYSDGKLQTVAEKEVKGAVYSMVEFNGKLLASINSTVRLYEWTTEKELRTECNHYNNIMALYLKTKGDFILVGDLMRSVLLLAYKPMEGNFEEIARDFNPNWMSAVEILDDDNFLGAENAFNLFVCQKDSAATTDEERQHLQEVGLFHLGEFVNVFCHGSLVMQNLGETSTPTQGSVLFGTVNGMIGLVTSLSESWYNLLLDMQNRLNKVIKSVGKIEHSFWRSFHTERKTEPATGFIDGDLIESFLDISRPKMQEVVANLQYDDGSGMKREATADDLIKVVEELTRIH
attributeMeasured: HiBiT-Degradation A375.10 BRAF 2 hours Emax

# compound, measured
rows = [
    ("CCN(C)S(=O)(=O)Nc1ccc(F)c(Oc2ccc3ncn(C4CC5(CCN(C6CCC(c7ccc(NC8CCC(=O)NC8=O)cc7F)CC6)CC5)C4)c(=O)c3c2)c1F (single isomer, unassigned)", "** (<90% and >50%)"),
    ("CCN(C)S(=O)(=O)Nc1ccc(F)c(Oc2ccc3ncn([C@H]4CCC5(CCN(C6CCC(c7ccc(NC8CCC(=O)NC8=O)cc7F)CC6)CC5)C4)c(=O)c3c2)c1C#N (single isomer, unassigned)", "** (<90% and >50%)"),
]

----------
test: Pharmacokinetics in female BALB/c nude mice bearing A375 xenografts, 1 day dosing (PK and PD study): plasma, tumor and brain concentrations, AUC; type: in vivo; details: mouse, tumor, po, 3 mg/kg, 3 mg/kg p.o. QD × 1 day; 1 h; read-out: Mean Concentration in Tumor ± SEM

# compound, concentration at 1 h / ng/g
records = [
    ("CCN(C)S(=O)(=O)Nc1ccc(F)c(Oc2ccc3ncn(C4CC5(CCN(C6CC7(C6)CN(c6cc8c(cc6F)c(N6CCC(=O)NC6=O)nn8C)C7)CC5)C4)c(=O)c3c2)c1C#N (stereo not shown)", 254),
]

----------
experiment: Pharmacokinetics after 21 days dosing in the efficacy study (plasma, tumor and brain concentrations; plasma AUC at steady state), Example 14; format: in vivo, female BALB/c nude mice; conditions: mouse, plasma, po; 3 mg/kg p.o. BID × 21 days; read-out: Plasma AUC at steady state (Day 21), Average

# structureSmiles, AUC, ng·h/mL
records = [
    ("CCN(C)S(=O)(=O)Nc1ccc(F)c(Oc2ccc3ncn([C@H]4COC5(CCN(C6CC7(C6)CN(c6cc8c(cc6F)c(N6CCC(=O)NC6=O)nn8C)C7)CC5)C4)c(=O)c3c2)c1C#N", 87900),
]
